B1: tRNA (parent)
chain: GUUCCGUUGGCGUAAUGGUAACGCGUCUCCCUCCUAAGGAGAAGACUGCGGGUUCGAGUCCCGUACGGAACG

# Variants of: B1
# experiment_description: yeast fitness relative to wild type (ratio to wild type); higher = fitter; tRNA-Arg(CCU), competitive growth, 37 C, YPD
Fewer inactive variants are shown than the library holds.
Given measured yeast fitness, output T if it is greater than or equal to 0.6 and F if not.

GUUCCGUUGGCGUCAUGGUAACGCGUGUCCCUCCUAAGGAGAAGACUGCGGGUUCGAGUCCCGUACGGUACG [A14C C27G A69U] : F
GUCCCGUUGGCAUAAUGGUAACGCGUCUCCCUCCUACGGAGAAGUCUCCAGGUUCGAGUCCCGUACGGAACG [U3C G12A A37C A45U G48C G50A] : F
GUUCCGUUGGCGUAAUGGAAACGCGUCUCCCUCCUUAGGAGAAGACUGCUGGUUCGAGUCUCGUACGGAACG [U19A A36U G50U C61U] : F
GUUCCGUAGGCGUAAUGCUAACGCGUUUCCCUCCUAAGGAGAAGACUGCGCGUUAGAGUCCUGUUCGGUACG [U8A G18C C27U G51C C55A C62U A65U A69U] : T
GUUCCGUUGGCGUAAUGGGAACGCGUCUCCCUCCUAAGGAGAAGACUGCGGGUUGGAGUCCCGUAUGGAACG [U19G C55G C66U] : F

Q) Is the recorded value of yeast fitness equal to or greater than 0.6 for this variant? GUUCCGUUGGCGUAAUGCUAACGCGUCCCCCUCCUAAGGAGAAGACUGCGGGUUCGAGUCCCGUACGGAACG [G18C U28C]
A) T

Q) Is the recorded value of yeast fitness equal to or greater than 0.6 for this variant? GUUCCGUUGGUGUAAUGGUAACGCGUCUCCCUCCUAAGGAGAAGAGUGUGGGUUCGAGUCCCGUACGGAACG [C11U C46G C49U]
A) T

Q) Is the recorded value of yeast fitness equal to or greater than 0.6 for this variant? GUUUCGUUAGCGUAAUGGUAACGCGUCUCCCUCCUAAGGAGAAGACUGCGGGUACGAGUCCCGUACGGAACG [C4U G9A U54A]
A) F

Q) Is the recorded value of yeast fitness equal to or greater than 0.6 for this variant? GUUCCGCUGGCGUAAUGGUAACGCGUCACCUUCCUAAGGAGAAGACUGCGGGUUGGAGUCCCGUAUGGAACG [U7C U28A C31U C55G C66U]
A) F

Q) Is the recorded value of yeast fitness equal to or greater than 0.6 for this variant? GUUUCGUUGGCGUAAUGGUAACGCGUCUCCCUCCUAAGGAGAAGACUGCGGGUUCGGCUCCCGUACGGAACG [C4U A57G G58C]
A) T

Q) Is the recorded value of yeast fitness equal to or greater than 0.6 for this variant? GGUCCGUUGGCAAAAUGGUAACGCCUCACCCUACUAAGGAGAAGACUGCGGGUUCGAGUCCCCCACGGAACG [U2G G12A U13A G25C U28A C33A G63C U64C]
A) F

Q) Is the recorded value of yeast fitness equal to or greater than 0.6 for this variant? GUUCCGUCGGCGUAAUGGUAACGCGUCUCCCUCCUAAGGAGAAGAAUGCCGGUUCGAGUCCCGUACGGAACG [U8C C46A G50C]
A) F

Q) Is the recorded value of yeast fitness equal to or greater than 0.6 for this variant? GUUCCGUUGGCGUAAUGGUAACGCGUCUCCGUCCUAAGGAGAAAACUGCGCGUUCGAGUCCCGUGCGGAACG [C31G G44A G51C A65G]
A) F

Q) Is the recorded value of yeast fitness equal to or greater than 0.6 for this variant? GUUCCGUUGGCGUAAUGGUAACGCGUCUCCCUCCUAAGGAGAAGACUGCGGAUUCGGAUCCCGUACGGAACG [G52A A57G G58A]
A) F

Q) Is the recorded value of yeast fitness equal to or greater than 0.6 for this variant? GUUGCGUUGGAGUAAUGGUAACGCGUCUUCCUUCUAAGGAGAAGACUGCGGGUCCGAGUCCCGUACGGAACG [C4G C11A C29U C33U U54C]
A) F

Q) Is the recorded value of yeast fitness equal to or greater than 0.6 for this variant? GUUCCGUUGGCGUAAUGGUAACGCGUCUUCCUCCCAAGGAGUAGACUGCGGGUUCGAGUCUCGUAAGGAACG [C29U U35C A42U C61U C66A]
A) F

Q) Is the recorded value of yeast fitness equal to or greater than 0.6 for this variant? GUUCCGUUGGCGUAAUGGUAAGCCGUCUCCCUCCUAAGGAGAAGACUGCGGGUUCGAGUCCCGUACGGAACG [C22G G23C]
A) T

Q) Is the recorded value of yeast fitness equal to or greater than 0.6 for this variant? GUUCCGUUGGCGUACUGGUAGCGCGUCUCCCUCCUAAGGAGAAGACUGCGGGUUCGAGUCCCGUACGGAACG [A15C A21G]
A) F

Q) Is the recorded value of yeast fitness equal to or greater than 0.6 for this variant? GUUCCGUUGGCGUAAUGGUAACGCGUCUUCCUACUAAGGAGAAGACUGCGGGUUCGAGUCCCGUACGGAACG [C29U C33A]
A) T

Q) Is the recorded value of yeast fitness equal to or greater than 0.6 for this variant? GUUCUGUUGGCGUAAUGGUAACGCGUCUCCCUCCUAAGGAGAAGUGUGCGGGUUCGAGUCCCGUACGGAACG [C5U A45U C46G]
A) F

Q) Is the recorded value of yeast fitness equal to or greater than 0.6 for this variant? GUUCCGUAGGCGUAAUGGUAAGGCGUCUCCCUCCUAAGGAGAAGACUGCGGGUUGGAGUCCCGUACGGAACG [U8A C22G C55G]
A) T

Q) Is the recorded value of yeast fitness equal to or greater than 0.6 for this variant? GUUCCGAUGGCGUAAUGGUAACGCGUCUCCCUCCCAAGGAGGAGACUGCGGGUUCGAGUUCCGUACGGAACG [U7A U35C A42G C60U]
A) F

Q) Is the recorded value of yeast fitness equal to or greater than 0.6 for this variant? GUUCCGUUGGCGCAAUGGUAACGCGUCUGCCUCCUAAGGAGAAGACUGCGGGUUCGAGUCCUGUACGGCACG [U13C C29G C62U A69C]
A) F

Q) Is the recorded value of yeast fitness equal to or greater than 0.6 for this variant? GUUCCGUUGGGGUAAUGGUAACGCGUUUCCCUCCUAAGGAGAAGACAGCGGCUUCGAGUCCCGUACGGAACG [C11G C27U U47A G52C]
A) F

Q) Is the recorded value of yeast fitness equal to or greater than 0.6 for this variant? GUUACGUUGGCGUAAUGGUAACGUGUCUUCCUCCUAAGGAGAAGACUGCGGGUUCGAGUCCCGUACGGAACG [C4A C24U C29U]
A) F

Q) Is the recorded value of yeast fitness equal to or greater than 0.6 for this variant? GUUCCGUUGGCGUACCGGUAACGCGUCUCCCUCCUAAGGAGACGACUGCGGGUUCGAGUCCCGUACGGAACG [A15C U16C A43C]
A) F

Q) Is the recorded value of yeast fitness equal to or greater than 0.6 for this variant? GUUCCGUUGGCGUGAUGGUAUCGCGUCUCACUCCUUAGGAGAAGACUGCGGGUUCGAGUUCCGUACGGCACG [A14G A21U C30A A36U C60U A69C]
A) F

Q) Is the recorded value of yeast fitness equal to or greater than 0.6 for this variant? GUUGCGUUGGCGUAAUGGUAACGCGUCUCCCUCCUAAGGAGAAGACUGCGGGUUCGAGUCCCGUGCGGAACG [C4G A65G]
A) T

Q) Is the recorded value of yeast fitness equal to or greater than 0.6 for this variant? GUUCCGUUGGCGUAAUGGUAACGCGUCUCCCUCCCAAGGAGAAGACUGCGGCUUCGAGUCCCGUACCGAACG [U35C G52C G67C]
A) F

Q) Is the recorded value of yeast fitness equal to or greater than 0.6 for this variant? GUUUCGUUGGCGUAAUGGUAACGCGUCUCCCUCCUAAGGAGAAGACUGCGCGUUCGAGGCCCGCACGGAACG [C4U G51C U59G U64C]
A) F

From: the RNAGym collection of RNA variant scans (doi:10.1126/science.aae0568)
